Taken from patent US9012461B2.

Tested on: MDA-231-LNA cells
SETTINGS: 3 days
pIC50: −log10 of the molar value.
REPORTED_METRIC: pIC50

COMPOUND	REPORTED_METRIC	EXPERIMENTAL_VALUE
NC(=O)Cc1cccnc1CCc1nc(Nc2ccc(C3CCNCC3)cc2)ncc1C(F)(F)F	pIC50	< 5.30
NC(=O)Cc1ccccc1CCc1nc(Nc2ccc(C3CCNC3)cc2)ncc1C(F)(F)F (stereo not drawn)	pIC50	< 5.00

API: the following record is the query input.
Measured pIC50 of CCN1CCC(c2ccc(Nc3ncc(C(F)(F)F)c(CCc4ncccc4CC(N)=O)n3)cc2)CC1 : < 5.00
